In this section, each of the molecules is paired with its reported IC20.
Target: fMet-Leu-Phe receptor (Homo sapiens)
Sequence (whole entry): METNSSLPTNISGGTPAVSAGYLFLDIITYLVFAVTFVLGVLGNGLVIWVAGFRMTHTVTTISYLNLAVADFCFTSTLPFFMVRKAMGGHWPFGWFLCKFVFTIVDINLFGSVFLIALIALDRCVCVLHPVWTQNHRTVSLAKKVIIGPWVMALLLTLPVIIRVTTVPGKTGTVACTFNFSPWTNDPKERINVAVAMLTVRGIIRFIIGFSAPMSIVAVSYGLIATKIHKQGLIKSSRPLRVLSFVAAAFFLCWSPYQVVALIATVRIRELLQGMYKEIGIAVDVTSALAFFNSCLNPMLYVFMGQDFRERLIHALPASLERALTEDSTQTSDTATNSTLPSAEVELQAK
Assay: Inhibitory activity against Human formylpeptide receptor (FPR) of human leukemia HL-60 cells
Type: cell-based
Quick reminder: number only, in nM, skip the unit.

// query What IC20 value was documented for this molecule, CC(C)C[C@@H]1NC(=O)[C@@H](CC(C)C)N(C)C(=O)CN(C)C(=O)[C@H]([C@@H](C)O)NC(=O)[C@H]([C@H](O)[C@H](C)C/C=C/CO)N(C)C(=O)[C@H](C(C)C)N(C)C(=O)[C@H](CC(C)C)NC(=O)[C@H](CC(C)C)N(C)C(=O)[C@@](O)(C(C)C)NC(=O)[C@H](C)NC(=O)[C@@H](CC(C)C)N(C)C1=O ?
// result 470

// query Likewise for C/C=C/C[C@@H](C)[C@@H](O)C1NC(=O)[C@H](C(C)C)N(C)C(=O)[C@H](CC(C)C)N(C)C(=O)[C@H](CC(C)C)N(C)C(=O)[C@@H](C)NC(=O)[C@H](C)NC(=O)[C@@H](CC(C)C)N(C)C(=O)[C@@H](C(C)C)NC(=O)[C@@H](CC(C)C)N(C)C(=O)CN(C)C(=O)[C@H](C(C)C)NC1=O (some centres not stated) ?
// result 2000

// query And what about the molecule C/C=C/C[C@@H](C)[C@@H](O)[C@H]1C(=O)N[C@@H](CC)C(=O)N(C)CC(=O)N(C)[C@H](CC(C)C)C(=O)N[C@H](C(C)C)C(=O)N(C)[C@H](CC(C)C)C(=O)N[C@@H](C)C(=O)N[C@H](C)C(=O)N(C)[C@@H](CC(C)C)C(=O)N(C)[C@@H](CC(C)C)C(=O)N(C)[C@@H](C)C(=O)N1C ?
// result 310

// query Record: CC/C=C/C[C@@H](C)[C@@H](O)[C@H]1C(=O)N[C@@H](CC)C(=O)N(C)CC(=O)N(C)[C@@H](C(C)C)C(=O)N[C@H](C(C)C)C(=O)N(C)[C@H](CC(C)C)C(=O)N[C@@H](C)C(=O)N[C@H](C)C(=O)N(C)[C@@H](CC(C)C)C(=O)N(C)[C@@H](CC(C)C)C(=O)N(C)[C@@H](C(C)C)C(=O)N1C
// result 1440

Next item in the queue.
// query State the recorded IC20 for this entry: C/C=C/C[C@@H](C)[C@@H](O)[C@H]1C(=O)N[C@@H](CC)C(=O)N(C)CC(=O)N(C)[C@H](CC(C)C)C(=O)N[C@H](C(C)C)C(=O)N(C)[C@H](CC(C)C)C(=O)N[C@@H](C)C(=O)N[C@H](C)C(=O)N(C)[C@@H](CC(C)C)C(=O)N(C)[C@@H](CC(C)C)C(=O)N(C)[C@@H]([C@@H](C)CC)C(=O)N1C
// result 2900
